ASSAY TARGET: UniProtKB A0A5G2QT35
Sequence (A0A5G2QT35 1-497): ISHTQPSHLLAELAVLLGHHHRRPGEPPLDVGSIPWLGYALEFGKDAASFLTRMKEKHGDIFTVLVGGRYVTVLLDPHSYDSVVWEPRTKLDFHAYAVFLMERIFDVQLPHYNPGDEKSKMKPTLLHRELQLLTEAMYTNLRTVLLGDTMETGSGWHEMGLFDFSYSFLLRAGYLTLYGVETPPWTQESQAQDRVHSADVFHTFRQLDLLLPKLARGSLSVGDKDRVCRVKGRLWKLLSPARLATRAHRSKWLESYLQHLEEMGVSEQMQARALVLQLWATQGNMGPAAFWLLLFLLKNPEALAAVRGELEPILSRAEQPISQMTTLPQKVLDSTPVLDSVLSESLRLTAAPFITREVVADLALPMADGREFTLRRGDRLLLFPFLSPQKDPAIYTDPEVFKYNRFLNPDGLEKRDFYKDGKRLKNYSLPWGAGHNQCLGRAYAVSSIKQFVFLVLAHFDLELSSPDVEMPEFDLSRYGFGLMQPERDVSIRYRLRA
Counter-ions that a name gives are not always drawn.
REPORTED PROPERTY: IC50

Report value only: IC50, UniProtKB A0A5G2QT35, Cc1ccc(OCC(=O)O)c(Cn2ccnc2)c1 [Example 2, hydrochloride hemihydrate]
> 100 µM

---

ASSAY TARGET: thromboxane synthetase (Homo sapiens, UniProt P24557)
Construct: Indomethacin pre-treated human platelet microsomes
Sequence (P24557 1-533): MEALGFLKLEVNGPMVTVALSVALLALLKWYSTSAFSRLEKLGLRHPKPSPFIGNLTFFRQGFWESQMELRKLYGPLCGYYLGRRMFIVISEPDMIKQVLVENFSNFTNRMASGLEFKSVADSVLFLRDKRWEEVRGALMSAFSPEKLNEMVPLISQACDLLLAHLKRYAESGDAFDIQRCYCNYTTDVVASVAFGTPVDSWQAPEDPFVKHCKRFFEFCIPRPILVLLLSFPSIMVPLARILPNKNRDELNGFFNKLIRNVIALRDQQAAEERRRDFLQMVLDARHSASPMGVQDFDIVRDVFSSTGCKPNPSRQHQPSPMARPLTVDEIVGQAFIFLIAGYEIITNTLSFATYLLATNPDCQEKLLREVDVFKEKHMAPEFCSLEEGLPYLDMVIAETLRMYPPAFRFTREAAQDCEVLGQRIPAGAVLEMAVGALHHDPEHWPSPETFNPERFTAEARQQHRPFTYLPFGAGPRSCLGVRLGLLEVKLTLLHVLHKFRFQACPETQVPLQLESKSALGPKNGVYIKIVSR
ASSAY SUMMARY: Thromboxane A2 (TxA2) synthetase inhibition (indomethacin pre-treated human platelet microsomes, rabbit aorta superfusion bioassay)
RECORDED CONDITIONS: 5 min pre-incubation, isometric tension of rabbit aorta, read-out: Molar concentration causing 50% inhibition of (1) thromboxane synthetase
Counter-ions that a name gives are not always drawn.
Record form. Attribute: log10 of IC50. Fill in for each entry.
Base-10 log of IC50, unit nM.

Let me know recorded log10 of IC50 for "Cc1ccc(OCc2ccc(C(=O)O)cc2)c(Cn2ccnc2)c1" , thanks.
1.67

Let me know recorded log10 of IC50 for "Cc1ccc(OCCCC(N)=O)c(Cn2ccnc2)c1" , thanks.
0.38

Let me know recorded log10 of IC50 for NC(=O)COc1ccc(Cn2ccnc2)cc1 [Example 8, 4-(1-Imidazolylmethyl)phenoxyacetamide] , thanks.
1.66

Let me know recorded log10 of IC50 for Cc1ccc(OCC(=O)O)c(Cn2ccnc2)c1 [Example 2, hydrochloride hemihydrate] , thanks.
0.91

Let me know recorded log10 of IC50 for O=C(O)COc1cccc(Cn2ccnc2)c1 [Example 24, hydrochloride] , thanks.
0.65
